# tested-on: T1, mSNAPc#2 SNAP190-Y389A (Homo sapiens, UniProt Q5SXM2;Q92966;Q16533;O75971 1-505;1-411;1-268;1-98, Y389A)
# T1 sequence 1: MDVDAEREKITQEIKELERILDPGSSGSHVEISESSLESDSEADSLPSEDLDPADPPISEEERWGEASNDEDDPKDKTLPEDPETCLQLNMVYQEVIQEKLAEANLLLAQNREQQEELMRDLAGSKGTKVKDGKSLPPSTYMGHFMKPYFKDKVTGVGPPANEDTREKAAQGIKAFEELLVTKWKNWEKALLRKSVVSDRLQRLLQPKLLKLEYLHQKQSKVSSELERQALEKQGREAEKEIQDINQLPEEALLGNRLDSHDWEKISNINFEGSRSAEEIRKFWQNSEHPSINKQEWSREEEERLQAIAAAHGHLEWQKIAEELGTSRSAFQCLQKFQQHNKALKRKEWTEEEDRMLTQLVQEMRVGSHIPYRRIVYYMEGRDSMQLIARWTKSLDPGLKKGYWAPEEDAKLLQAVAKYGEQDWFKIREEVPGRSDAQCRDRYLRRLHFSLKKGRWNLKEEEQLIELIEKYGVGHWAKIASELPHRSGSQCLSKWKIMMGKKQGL
# T1 sequence 2: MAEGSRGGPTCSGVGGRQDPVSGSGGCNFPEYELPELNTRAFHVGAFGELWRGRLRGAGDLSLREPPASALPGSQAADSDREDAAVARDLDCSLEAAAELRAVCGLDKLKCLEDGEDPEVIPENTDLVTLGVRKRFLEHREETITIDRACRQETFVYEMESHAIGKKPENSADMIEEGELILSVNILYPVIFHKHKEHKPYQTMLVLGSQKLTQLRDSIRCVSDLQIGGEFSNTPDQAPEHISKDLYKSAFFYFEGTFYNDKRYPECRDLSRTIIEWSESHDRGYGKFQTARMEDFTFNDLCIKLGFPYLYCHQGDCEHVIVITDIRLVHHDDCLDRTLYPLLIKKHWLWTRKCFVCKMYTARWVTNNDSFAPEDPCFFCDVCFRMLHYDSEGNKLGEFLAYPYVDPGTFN
# T1 sequence 3: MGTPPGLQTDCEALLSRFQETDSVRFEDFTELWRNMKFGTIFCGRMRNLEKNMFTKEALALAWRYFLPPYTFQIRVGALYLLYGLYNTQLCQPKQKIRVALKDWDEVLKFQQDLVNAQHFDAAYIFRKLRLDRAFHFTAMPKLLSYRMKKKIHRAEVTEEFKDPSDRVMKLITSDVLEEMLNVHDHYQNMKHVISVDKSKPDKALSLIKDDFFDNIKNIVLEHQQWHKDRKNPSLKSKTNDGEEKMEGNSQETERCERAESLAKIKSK
# T1 sequence 4: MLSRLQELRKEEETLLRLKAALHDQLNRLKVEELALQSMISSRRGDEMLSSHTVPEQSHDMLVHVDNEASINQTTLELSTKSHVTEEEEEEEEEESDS
# test-name: SPR; EMSA: 100 mM KCl, 25 mM HEPES-K pH 7.6, 12.5 mM MgCl2, 10 uM ZnCl2, 0.1 mM EDTA, 10% glycerol, 3 mM DTT, 0.5 mM PMSF, 50 nM DNA, RT 30 min; SPR: 100 mM KCl, 12.5 mM MgCl2, 10 uM ZnCl2, 0.1 mM EDTA, 0.05% P20, 25 C
# measurement-parameters: protein: recombinant; tags: as P1; copies: 1;1;1;1
metric-name: pKd
The read-out pKd is expressed as -log10 of concentration in moles per litre.

Q: // query pKd value for entry 25 bp hU6-1 PSE (SPR) (dsDNA) DNA 1: TGCTTACCGTAACTTGAAAGTATTT DNA 2: AAATACTTTCAAGTTACGGTAAGCA
Result: 5.96

These data points were gathered from paper PMC9652321.
